Reference source for all entries: ChEMBL document CHEMBL1201862

- Tested on: HOP-92
- PROCEDURE_TEXT: NCI tumour cell line growth inhibition, 48 h
Active and inactive are the calls of the source. No stated cut-off is given here; in the data, active = GI50 up to about 1.1 µM and inactive = higher.
Tick one outcome: 1 = active, 0 = inactive

Some solved cases for reference:
{"COMPOUND": "CCOC(=O)C1(O)C(=O)C2=C3C(=O)OC(C4OC(=O)c5c(c(O)c(O)c(O)c5C31)-c1c(cc(O)c(O)c1O)C(=O)OC1COC(=O)c3cc(O)c(O)c(O)c3-c3c(cc(O)c(O)c3O)C(=O)OC14)[C@@H]2O (some centres not stated)", "CAT": 0}
{"COMPOUND": "COc1ccccc1C1(c2c(OC(C)C)c(=O)c2=O)SCCCS1", "CAT": 0}
{"COMPOUND": "O=C1C(Cl)=C(Nc2ccc(S(=O)(=O)O)cc2)C(=O)c2ccccc21", "CAT": 0}
{"COMPOUND": "Cc1ccc(NC(=O)OCC(COc2ccc(Cl)cc2)OC(=O)Nc2ccc(C)cc2)cc1 (configuration not stated)", "CAT": 0}

Fill in: this test's call for CC(C)=CCC/C(C)=C/C=C/C(C)=C/C1C[C@@]2(C(O)O1)[C@H](CCCO)/C(=C(/C)C=O)CC[C@]2(C)O (some centres not stated) is ___ 1

Fill in: this test's call for O=C1C=CC(=O)c2c1ccc1c3ccccc3n(Cc3cccc([N+](=O)[O-])c3)c21 is ___ 0

Fill in: this test's call for CC(=O)c1cc(S(=O)(=O)c2ccc(O)c(C(C)=O)c2)ccc1O is ___ 0

Fill in: this test's call for CCOC(OC1=C(C#N)CCCC1)C(C)[Se]c1ccccc1 (configuration not stated) is ___ 0

Fill in: this test's call for O=C1C(Cl)C2(CC(/C=C/c3ccccc3)=NN2c2cccc(S(=O)(=O)O)c2)N1c1nc2ccccc2s1 (configuration not stated) is ___ 0

Fill in: this test's call for c1ccc(C2=NN=C3C(c4ccccc4)=Nc4ccccc4N3C2)cc1 is ___ 0

Fill in: this test's call for CCOC(=O)c1ccc(-c2onc(C)c2Br)[nH]1 is ___ 0

----------
- Tested on: Malme-3M
- PROCEDURE_TEXT: NCI tumour cell line growth inhibition, 48 h
Activity calls are given as the source filed them. Cut-off read from the data, not from the text of the source: active = GI50 up to about 1.1 µM and inactive = higher. Square brackets hold non-standard residues; d marks the D form. Peptide text beside a SMILES is read from it. * marks the point of attachment. Bn2Val = CC(C)[C@@H](C(=O)*)N(Cc1ccccc1)Cc1ccccc1; NH(3,4-diMeO-benzyl) = COc1ccc(CN*)cc1OC; NMeV = CN[C@H](C(=O)O)C(C)C; dNMeA = CN[C@H](C)C(=O)O
QUANTITY_KIND: GI50

Example results:
{"COMPOUND": "N#C[C@H](OC1OC(COC2OC(CO)C(O)C(O)C2O)C(O)C(O)C1O)c1ccccc1 (some centres undefined)", "GI50": "> 250 µM (inactive)"}
{"COMPOUND": "COc1ccc(CNC(=O)[C@@H](C)N(C)C(=O)[C@@H]2CCCN2C(=O)[C@H](C(C)C)N(C)C(=O)[C@@H](NC(=O)[C@H](C(C)C)N(Cc2ccccc2)Cc2ccccc2)C(C)C)cc1OC (Bn2Val-V[NMeV]P[dNMeA]-{NH(3,4-diMeO-benzyl)})", "GI50": "8.67 µM (inactive)"}
{"COMPOUND": "C[n+]1c2ccccc2c2/c(=C\\C#N)c3ccccc3n21", "GI50": "2.53 µM (inactive)"}
{"COMPOUND": "CCOC(=O)/C(=C\\c1ccc(N(CCC#N)CCC#N)cc1)NC(=O)c1cc([N+](=O)[O-])ccc1Cl", "GI50": "> 100 µM (inactive)"}
{"COMPOUND": "COc1ccccc1[C@@H]1CCC2CC[C@@H](c3ccccc3OC)[N+]21Cc1ccccc1 (some centres undefined)", "GI50": "2.3 µM (inactive)"}
{"COMPOUND": "CCN1CCC(O)(/C=C/c2ccc(OC)cc2)C(C(=O)/C=C/c2ccc(OC)cc2)C1 (centres undefined)", "GI50": "17.1 µM (inactive)"}

Quick one: GI50 of O=C(OC1CCC2OOC1O2)c1ccc([N+](=O)[O-])cc1 (centres undefined) ? > 100 µM (inactive)

Quick one: GI50 of CC(=O)Oc1ccc(-c2cc3ccccc3oc2=O)cc1OC(C)=O ? 51.4 µM (inactive)

Quick one: GI50 of Cc1cc(C)c(-c2no/c(=N\S(=O)(=O)c3ccc(Cl)cc3)o2)c(C)c1 ? 75 µM (inactive)

Quick one: GI50 of O=C(CN(c1ccc(S(=O)(=O)O)cc1)c1ccc(S(=O)(=O)O)cc1)Nn1cnc2ccc(S(=O)(=O)N(c3ccc(S(=O)(=O)O)cc3)c3ccc(S(=O)(=O)O)cc3)cc2c1=O ? > 100 µM (inactive)

----------
- System: NCI/ADR-RES
- PROCEDURE_TEXT: NCI tumour cell line growth inhibition, 48 h
Calls of active or inactive are those of the source. No stated cut-off is given here; in the data, active = GI50 up to about 1.1 µM and inactive = higher.
Tick one outcome: active, inactive

Some solved cases for reference:
{"COMPOUND": "COc1ccc(/C=C/C(=O)NCC(NC(=O)/C=C/c2ccc(OC)c(OC)c2)C(=O)O)cc1OC (centres undefined)", "CAT": "active"}
{"COMPOUND": "Nc1nc(-[n+]2ccc(-c3ccncc3)cc2)nc(Cl)c1Cl", "CAT": "inactive"}
{"COMPOUND": "CCOC(=O)Nc1ccc2c(c1)c(CCCCCCc1nc3ccccc3c3ccc(NC(=O)OCC)cc13)nc1ccccc12", "CAT": "inactive"}
{"COMPOUND": "CN(C)CC1=Nc2cccc3cccc(c23)N1", "CAT": "inactive"}
{"COMPOUND": "O=C1C(Cl)C2(CC(/C=C/c3ccccc3)=NN2c2cccc(S(=O)(=O)O)c2)N1c1nc2ccccc2s1 (centres undefined)", "CAT": "inactive"}

Okay, now this compound:
Fill in: this test's call for COc1ccc(C2C3=C(COC3=O)OC(C)(C)Oc3cc4c(cc32)OCO4)cc1 (centres undefined) is ___ inactive

----------
Listing of recorded GI50 by entry.
- Test system: SNB-19
- PROCEDURE_TEXT: NCI tumour cell line growth inhibition, 48 h
The source made the active and inactive calls. No stated cut-off is given here; in the data, active = GI50 up to about 1.1 µM and inactive = higher.

Example results:
{"MOLECULE": "N=C(N)NCC[C@H](NC(=O)OCCCCCn1ccc(=O)[nH]c1=O)C(=O)O", "GI50": "> 100 µM (inactive)"}
{"MOLECULE": "N#Cc1ccc(C2Oc3ccc(Cl)cc3C=C2[N+](=O)[O-])cc1 (configuration not stated)", "GI50": "2.67 µM (inactive)"}
{"MOLECULE": "[O-][S+](CCc1ccccc1)Nc1ccccc1 (configuration not stated)", "GI50": "> 100 µM (inactive)"}
{"MOLECULE": "C[C@@H]1CC[C@@]2(C)[C@H](C)/C(=C\\COC(=O)/C=C/c3ccc(O)c(O)c3)CC[C@@]12C [NAVICULYL CAFFEATE]", "GI50": "11.5 µM (inactive)"}
{"MOLECULE": "Cc1nc2c(n1Cc1ccc(Cl)cc1)C(=O)c1ccccc1C2=O", "GI50": "> 75 µM (inactive)"}
{"MOLECULE": "O=C(N/N=C\\c1ccc(Cl)cc1)Nc1cccc2ccccc12", "GI50": "2.66 µM (inactive)"}

Quick one: GI50 of COC(=O)C(CCCN1C(=O)c2ccccc2C1=O)C(=O)OC ? > 100 µM (inactive)

----------
- Test system: A498
- PROCEDURE_TEXT: NCI tumour cell line growth inhibition, 48 h
Calls of active or inactive are those of the source. Rule as the data show it: active = GI50 up to about 1.1 µM and inactive = higher.
Tick one outcome: active, inactive

{"MOLECULE": "Cc1cc([N+](=O)[O-])ccc1Nc1cccc(Cl)c1C", "CAT": "inactive"}
{"MOLECULE": "O=C(NCCC1CN(S(=O)(=O)C(F)(F)F)c2ccccc21)OCc1ccccc1 (centres undefined)", "CAT": "inactive"}
{"MOLECULE": "O=c1[nH]c2cc([N+](=O)[O-])c(N/N=C/c3ccc(Cl)cc3Cl)c([N+](=O)[O-])c2[nH]1", "CAT": "inactive"}

Fill in: this test's call for COc1ccc2nc3cc([N+](=O)[O-])ccc3c(NNc3ccc(Cl)cc3)c2c1 is ___ active

----------
Listing of recorded GI50 by entry.
- Tested on: DU-145
- PROCEDURE_TEXT: NCI tumour cell line growth inhibition, 48 h
Calls of active or inactive are those of the source. Cut-off read from the data, not from the text of the source: active = GI50 up to about 1.1 µM and inactive = higher.

Example results:
{"SMILES_NOTATION": "S=C(N/N=C(\\c1ccccc1)c1ccccn1)NC1CCCCC1", "TARGET_OF_ASSAY": "DU-145", "QUANTITY_KIND": "GI50", "RESULT": "29.3 µM (inactive)"}
{"SMILES_NOTATION": "Cc1ccc(-c2cn3c(nc4ccccc43)c(-c3ccccc3)n2)cc1", "TARGET_OF_ASSAY": "DU-145", "QUANTITY_KIND": "GI50", "RESULT": "> 100 µM (inactive)"}

Quick one: GI50 of Cc1nc(-c2cc3c(ccc4ccccc43)oc2=O)cs1 ? > 100 µM (inactive)
